# System Name: WT1RMF/HLA-A2 complex on cells (human)
# Test Method Notes: flow cytometry, T2 cells pulsed with 50 µM WT1RMF, antibody titrated 0.00096-45 nM, MFI curve

[
  {
    "Binder": "4F10-IgG1-SI (antibody, V domains shown, VH and VL joined to IgG1 constant regions with SI mutations (S239D and I332E, EU numbering) in the Fc) VH: QVQLQESGPGLVKPSETLSLTCTVSGGSISNYYWSWIRQPPGKGLEWIGYIYYSGSTNYNPSLKSRVNISVDTSKSQVSLKLNSVIAADTAVYYCARHEDYWYFDLWGRGTLVTVSS VL: DIQLTQSPSSLSASIRDRVTITCRASQDINNYLAWFQQKPGKAPKSLIYAVSSLESGVPSKFSGSGSGTDFTLTISSLQPEDFATYFCQQYNSYPFTFGPGTKVEIK",
    "EC50, nM": 0.42
  },
  {
    "Binder": "7B9-IgG1-SI (antibody, V domains shown, VH and VL joined to IgG1 constant regions with SI mutations (S239D and I332E, EU numbering) in the Fc; also called 7B9-IgGI-SI) VH: EVQLVESGGGVVQPGGSLRLSCAASGFTFDDYAMHWVRQAPGKGLEWVSLISGDDGSTYYADSMKGRITISRDNSKNSLYLQMNSLRTEDTAMYYCAKASYGSGSYLYNYGMDVWGQGTTVTVFS VL: DIQLTQSPSSLSASVGDRVTITCQASQDIINYLNWYQQKPGKAPKLLIYDTSNLETGVPSRFSGSGSGTDFAFTINSLQPEDIATYYCQQFVNLPLTFGGGTKVEIK",
    "EC50, nM": 0.553
  },
  {
    "Binder": "3A6-IgG1-SI (antibody, V domains shown, VH and VL joined to IgG1 constant regions with SI mutations (S239D and I332E, EU numbering) in the Fc) VH: QVQLQESGPGMVKPSETLSLTCTVSGGSISYNYWSWIRQPPGKGLEWIGYIYHSGTTKYNPSLKSRVTMSVDTSKNHFSLKLNSVTAADTAVYYCARHEDYWFFDLWGRGTLVTVSS VL: DIQMTQSPSSLSASVGDRVTITCRASQGISNYLVWFQQKPGKAPKSLIYAASILQSGVPSKFSGSGSGTDFTLTINSLQPEDFATYYCQQYNTYPFTFGPGTKVDIK",
    "EC50, nM": 2.26
  },
  {
    "Binder": "1E9-IgG1-SI (antibody, V domains shown, VH and VL joined to IgG1 constant regions with SI mutations (S239D and I332E, EU numbering) in the Fc; also called 1E9-IgGI-SI) VH: EVQMVESGGDVVRPGGSLRLSCAASGFMFDDYGMSWVRHVQGKGLEWVSGIDWNGDSTGYADSVKGRFTISRDNAKNSLYLQMNSLRAEDTALYYCARDQGIAVAGPYNYYYGMDVWGQGTTVTVSS VL: EIVLTQSPATLSLSPGERATLSCRASQSVSSYLAWYQEKPGQAPRLLIFDASNRATGIPARFSGSGSGTDFTLTISSLEPEDFAVYYCQQRSNWPFTFGPGTRVEIK",
    "EC50, nM": 0.798
  },
  {
    "Binder": "P01218-IgG1-SI (antibody, V domains shown, VH and VL joined to IgG1 constant regions with SI mutations (S239D and I332E, EU numbering) in the Fc; also called P01218-IgGI-SI) VH: EVQLVESGGGVVQPGRSLRLSCAASGFTFSSYAMHWVRQAPGKGLEWVAVISYDGSNKYYADSVKGRFTISRDNSKNTLYLQMNSLRAEDTAVYYCARAPYYGSGSYYNSYYYYHGMDVWGQGTTVTVSS VL: AIWMTQSPSSLSASVGDRVTITCQASQDISNYLNWYQQKPGKAPNLLIYDASNLETGVPSRFSGSGSGTDFTLTISSLQPEDIATYYCQQYDNLPLTFGGGTKVEIK",
    "EC50, nM": 3.48
  }
]
